Origin of the recorded values: patent US20200317779A1

# assaySystem: recombinant cynomolgus monkey CD3ε/δ heterodimer (cynomolgus monkey) (UniProt Q95LI5)
# Sequence (Q95LI5 22-117, stated change not applied, chain 1 of 2): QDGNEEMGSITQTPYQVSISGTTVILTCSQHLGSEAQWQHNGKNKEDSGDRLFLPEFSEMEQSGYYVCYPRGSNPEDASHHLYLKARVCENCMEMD
# Sequence (Q95LI8 22-105, stated change not applied, chain 2 of 2, further chain): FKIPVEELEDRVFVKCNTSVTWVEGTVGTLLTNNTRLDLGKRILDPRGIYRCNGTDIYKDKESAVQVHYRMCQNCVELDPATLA
# testMethodNotes: BLI (Octet), antigen on anti-Penta His sensor, antibody 50 nM
Some binders, each annotated with its measured koff.
The figure you give is taken to be in s⁻¹; do not add the unit.

binder | propertyLabel | quantitativeResult
C07 (antibody, human IgG1, lambda, L234A L235A, V domains shown) VH: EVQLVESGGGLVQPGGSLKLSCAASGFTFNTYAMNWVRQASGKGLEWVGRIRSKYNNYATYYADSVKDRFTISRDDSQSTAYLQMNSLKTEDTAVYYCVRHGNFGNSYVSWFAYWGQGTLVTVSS VL: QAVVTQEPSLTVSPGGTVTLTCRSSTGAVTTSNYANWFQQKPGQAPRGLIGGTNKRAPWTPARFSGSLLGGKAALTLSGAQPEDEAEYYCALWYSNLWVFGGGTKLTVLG | koff | 0.00535

Here is the next item to consider.
Input: # koff lookup, item F16 (antibody, human IgG1, lambda, L234A L235A, V domains shown) VH: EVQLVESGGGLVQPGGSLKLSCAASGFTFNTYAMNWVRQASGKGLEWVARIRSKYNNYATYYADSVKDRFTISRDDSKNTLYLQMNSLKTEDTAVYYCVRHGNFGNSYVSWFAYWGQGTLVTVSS VL: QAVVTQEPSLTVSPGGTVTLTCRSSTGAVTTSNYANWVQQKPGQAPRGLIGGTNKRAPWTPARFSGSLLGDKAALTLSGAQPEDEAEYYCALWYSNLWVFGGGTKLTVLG
Output: 0.000253
